Where these numbers come from: patent US20020137929A1

System: CASOB (Sicklepod)
procedure.details: Preemergence herbicidal evaluation
Format: in vivo, Cassia obtusifolia
measurement.setup: 0.0156 kg/ha, rated 4-5 weeks after treatment
Can you tell me Preemergence herbicidal rating CASOB for the items I'm about to list?
A bare number is all that is needed in reply.

Tested on CASOB (Sicklepod), the item CN1C(=O)C(CC(=O)NO)SC1=Nc1cc(-n2c(=O)cc(C(F)(F)F)n(C)c2=O)c(F)cc1Cl (stereo not shown) showed Preemergence herbicidal rating CASOB equal to 0.0

Tested on CASOB (Sicklepod), the item "COC(=O)CSCCN1C(=O)CSC1=Nc1cc(-n2c(=O)cc(C(F)(F)F)n(C)c2=O)c(F)cc1Cl" showed Preemergence herbicidal rating CASOB equal to 1.0

Tested on CASOB (Sicklepod), the item C=CCN1C(=O)C(CC(=O)NO)SC1=Nc1cc(-n2c(=O)cc(C(F)(F)F)n(C)c2=O)c(F)cc1Cl (stereo not shown) showed Preemergence herbicidal rating CASOB equal to 0.0

Tested on CASOB (Sicklepod), the item "CCCN1C(=O)CSC1=Nc1cc(-n2c(=O)cc(C(F)(F)F)n(C)c2=O)c(F)cc1Cl" showed Preemergence herbicidal rating CASOB equal to 4.0
